- target desc: T1, SH2 domain of Crkl protein (residues 1-111), H91A variant (UniProt P46109 1-111, H91A)
- T1 construct: Crkl adaptor protein, SH2 domain, residues 1-111, His91 replaced by alanine; Site-directed mutant of m1 (QuikChange); source: E. coli BL21 (DE3), purified (HisTrap nickel column, desalting); not shown: His tag, N-terminal, kept
- T1 sequence (P46109 1-111 H91A): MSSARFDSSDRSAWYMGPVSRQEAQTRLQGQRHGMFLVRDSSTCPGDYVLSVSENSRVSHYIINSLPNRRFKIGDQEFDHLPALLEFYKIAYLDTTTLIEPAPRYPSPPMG
- test protocol: stopped-flow fluorescence kinetics (FRET); dansyl-Pax112-123 constant at 2 μM mixed with Crkl-SH2 2 to 10 μM (pseudo-first-order, kon); koff by displacement of the preincubated 2 µM complex with excess non-dansylated Pax112-123 (30 μM); 283 K; 50 mM BisTRIS pH 6.0, 0.5 M NaCl
- measurement parameters: both partners purified
Square brackets hold non-standard residues; d marks the D form. Ends that are not written are not given here. * marks the point of attachment. pY = N[C@@H](Cc1ccc(OP(=O)(O)O)cc1)C(=O)O; Dansyl = CN(C)c1cccc2c(S(=O)(=O)*)cccc12
property name: Kd

Data request: Field request: Kd | item: Dansyl-GEEEHV[pY]SFPNK (The dansyl group is the FRET acceptor of Trp14 of the SH2 domain; source: synthetic peptide, bought: GenScript) [dansylated Pax_(112–123) peptide (Dans-GEEEHV-pY-SFPNK)]
Data returned: 3000 nM
